Hey, just so you know, these numbers are from patent US20250042994A1.

Target: T1, Human CD19-his protein (human, UniProt P15391 20-291)
T1 construct: bought protein; also called human CD19 protein; recombinant human CD19-His; not shown: His tag
T1 sequence (looked up): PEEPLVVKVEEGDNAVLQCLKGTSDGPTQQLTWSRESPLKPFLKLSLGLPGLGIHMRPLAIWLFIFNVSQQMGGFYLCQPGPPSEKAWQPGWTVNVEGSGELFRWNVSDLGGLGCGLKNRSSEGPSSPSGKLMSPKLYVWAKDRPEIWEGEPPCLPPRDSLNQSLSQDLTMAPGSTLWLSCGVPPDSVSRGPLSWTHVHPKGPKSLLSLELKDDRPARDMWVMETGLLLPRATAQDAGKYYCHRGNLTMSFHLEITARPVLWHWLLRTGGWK
Assay: ELISA, antibody at 10 nM
Exercise: state measured OD450 for each of the binders provided.
Form rule: numeric answer, no unit written next to it.

Entry F4.48.12 (antibody, human IgG1, V domains shown, human-murine chimeric antibody, human IgG1) VH: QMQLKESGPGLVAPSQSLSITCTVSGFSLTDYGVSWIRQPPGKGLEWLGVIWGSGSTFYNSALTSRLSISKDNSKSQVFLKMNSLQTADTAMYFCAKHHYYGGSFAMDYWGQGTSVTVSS VL: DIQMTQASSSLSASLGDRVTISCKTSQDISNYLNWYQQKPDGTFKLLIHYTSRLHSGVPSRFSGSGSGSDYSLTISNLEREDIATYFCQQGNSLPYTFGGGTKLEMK ; OD450 = 1.76

Entry F3.124.7 (antibody, human IgG1, V domains shown, human-murine chimeric antibody, human IgG1) VH: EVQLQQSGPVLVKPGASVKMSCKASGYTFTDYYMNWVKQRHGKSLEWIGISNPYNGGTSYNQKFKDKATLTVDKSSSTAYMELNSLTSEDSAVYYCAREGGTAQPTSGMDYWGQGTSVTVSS VL: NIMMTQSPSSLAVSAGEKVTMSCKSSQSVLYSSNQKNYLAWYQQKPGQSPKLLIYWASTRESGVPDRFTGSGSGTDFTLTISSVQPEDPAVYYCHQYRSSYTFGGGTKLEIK ; OD450 = 2.63

Entry F4.15.9 (antibody, human IgG1, V domains shown, human-murine chimeric antibody, human IgG1) VH: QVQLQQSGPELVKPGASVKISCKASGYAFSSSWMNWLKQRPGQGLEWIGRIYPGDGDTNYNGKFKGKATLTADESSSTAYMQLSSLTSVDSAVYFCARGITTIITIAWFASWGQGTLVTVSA VL: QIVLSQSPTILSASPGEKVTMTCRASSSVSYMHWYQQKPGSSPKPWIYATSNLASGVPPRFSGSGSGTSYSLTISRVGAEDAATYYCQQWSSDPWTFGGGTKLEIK ; OD450 = 1.27

Entry F3.13.2 (antibody, human IgG1, V domains shown, human-murine chimeric antibody, human IgG1) VH: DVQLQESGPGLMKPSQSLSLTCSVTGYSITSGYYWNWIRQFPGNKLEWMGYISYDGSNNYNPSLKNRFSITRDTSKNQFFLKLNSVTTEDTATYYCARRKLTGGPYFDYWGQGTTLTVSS VL: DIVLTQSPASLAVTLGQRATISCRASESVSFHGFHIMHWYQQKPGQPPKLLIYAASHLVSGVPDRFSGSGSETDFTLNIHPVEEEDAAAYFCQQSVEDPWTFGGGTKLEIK ; OD450 = 0.29

Entry F3.23.10 (antibody, human IgG1, V domains shown, human-murine chimeric antibody, human IgG1) VH: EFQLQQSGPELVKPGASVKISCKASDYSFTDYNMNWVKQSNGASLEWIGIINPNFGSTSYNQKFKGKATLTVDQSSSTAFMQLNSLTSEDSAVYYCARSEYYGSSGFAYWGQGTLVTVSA VL: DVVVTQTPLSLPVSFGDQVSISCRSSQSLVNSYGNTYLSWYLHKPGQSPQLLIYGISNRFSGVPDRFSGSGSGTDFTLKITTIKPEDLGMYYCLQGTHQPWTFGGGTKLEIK ; OD450 = 1.85

Entry F5.8.6 (antibody, human IgG1, V domains shown, human-murine chimeric antibody, human IgG1) VH: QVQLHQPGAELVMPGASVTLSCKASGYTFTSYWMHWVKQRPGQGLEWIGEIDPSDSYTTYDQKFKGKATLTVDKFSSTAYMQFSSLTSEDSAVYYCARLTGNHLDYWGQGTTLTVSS VL: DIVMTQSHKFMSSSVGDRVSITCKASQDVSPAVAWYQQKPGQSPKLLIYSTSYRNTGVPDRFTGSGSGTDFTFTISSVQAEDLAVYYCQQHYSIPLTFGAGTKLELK ; OD450 = 0.93

Entry F4.125.12 (antibody, human IgG1, V domains shown, human-murine chimeric antibody, human IgG1) VH: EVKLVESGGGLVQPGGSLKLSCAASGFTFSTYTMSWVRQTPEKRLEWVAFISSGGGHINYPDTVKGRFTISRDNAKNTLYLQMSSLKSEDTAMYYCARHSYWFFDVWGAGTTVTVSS VL: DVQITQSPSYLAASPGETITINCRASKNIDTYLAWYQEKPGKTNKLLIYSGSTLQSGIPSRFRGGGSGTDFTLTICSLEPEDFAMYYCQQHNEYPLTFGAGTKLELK ; OD450 = 1.54

Entry F5.2.9 (antibody, human IgG1, V domains shown, human-murine chimeric antibody, human IgG1) VH: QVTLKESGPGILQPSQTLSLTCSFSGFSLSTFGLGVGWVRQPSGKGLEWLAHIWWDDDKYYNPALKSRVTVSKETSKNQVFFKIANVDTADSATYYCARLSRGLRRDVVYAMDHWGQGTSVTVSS VL: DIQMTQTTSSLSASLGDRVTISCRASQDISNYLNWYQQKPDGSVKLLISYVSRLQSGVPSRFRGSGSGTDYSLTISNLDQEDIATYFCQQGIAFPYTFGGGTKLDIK ; OD450 = 1.76

Entry F3.81.2 (antibody, human IgG1, V domains shown, human-murine chimeric antibody, human IgG1) VH: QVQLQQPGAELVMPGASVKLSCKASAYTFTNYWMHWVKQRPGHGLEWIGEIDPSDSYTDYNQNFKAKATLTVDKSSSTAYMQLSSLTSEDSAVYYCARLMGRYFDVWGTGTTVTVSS VL: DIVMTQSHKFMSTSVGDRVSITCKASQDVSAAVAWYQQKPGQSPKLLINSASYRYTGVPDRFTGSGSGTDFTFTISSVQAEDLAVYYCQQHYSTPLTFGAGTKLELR ; OD450 = 1.05

Entry F3.5.1 (antibody, human IgG1, V domains shown, human-murine chimeric antibody, human IgG1) VH: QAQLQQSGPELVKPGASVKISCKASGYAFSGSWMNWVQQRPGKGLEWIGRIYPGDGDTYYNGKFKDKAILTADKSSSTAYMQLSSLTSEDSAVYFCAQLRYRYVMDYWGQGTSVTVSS VL: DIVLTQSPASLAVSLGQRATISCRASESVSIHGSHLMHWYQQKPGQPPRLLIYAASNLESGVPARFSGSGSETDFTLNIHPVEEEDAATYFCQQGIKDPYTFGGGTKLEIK ; OD450 = 1.75
